Experiment: Half life of the compound in DMSO
Format: physicochemical
# reported half-life; entries follow

Consider the reported half-life for these molecules:
molecule	reported-property	measured-value
O=C(NCc1ccccc1F)N1C(=O)c2ccccc2S1(=O)=O	half-life	> 167 h
COc1cccc(CNC(=O)N2C(=O)c3ccccc3S2(=O)=O)c1	half-life	> 167 h
CC(NC(=O)N1C(=O)c2ccccc2S1(=O)=O)c1ccccc1 (stereo not drawn)	half-life	> 167 h
O=C(c1ccccc1)N1Cc2ccccc2C1=O	half-life	> 167 h
O=C(NCc1ccccc1Br)N1C(=O)c2ccccc2S1(=O)=O	half-life	> 167 h
CCCNC(=O)N1C(=O)c2ccccc2S1(=O)=O	half-life	> 167 h

Moving on to another molecule below.
Which value of half-life has been reported for O=C(NCC1CCCCC1)N1C(=O)c2ccccc2S1(=O)=O in the records?
> 167 h

---

Assay: Half life of the compound in GSH
Assay type: physicochemical
Details: GSH (glutathione)
reported-property: half-life (min)

Consider the reported half-life for these compounds:
compound	half-life / min
CC(NC(=O)N1C(=O)c2ccccc2S1(=O)=O)c1ccccc1 (stereo unspecified)	39.8
O=C(NCc1cccc2ccccc12)N1C(=O)c2ccccc2S1(=O)=O	23.7
O=C(NCc1ccc(Br)cc1)N1C(=O)c2ccccc2S1(=O)=O	11.2
O=C(NCc1cccs1)N1C(=O)c2ccccc2S1(=O)=O	21.9
O=C(NCC1CCCCC1)N1C(=O)c2ccccc2S1(=O)=O	57.8
COc1ccccc1CNC(=O)N1C(=O)c2ccccc2S1(=O)=O	67.3
COc1cccc(CNC(=O)N2C(=O)c3ccccc3S2(=O)=O)c1	31.4
O=C(NCc1ccccc1Br)N1C(=O)c2ccccc2S1(=O)=O	15.2

(1) O=C(NCc1ccccc1Cl)N1C(=O)c2ccccc2S1(=O)=O
(2) O=C(NCc1ccccc1C(F)(F)F)N1C(=O)c2ccccc2S1(=O)=O
(3) Cc1ccccc1CNC(=O)N1C(=O)c2ccccc2S1(=O)=O
Order field: half-life | Direction: descending (largest first) Reply: labels, ordered per the request.
3, 1, 2

(P) O=C(NCc1ccc(C(F)(F)F)cc1)N1C(=O)c2ccccc2S1(=O)=O
(Q) O=C(NCCc1ccccc1)N1C(=O)c2ccccc2S1(=O)=O
Of P and Q , which carries the smaller reported half-life figure? When you have decided, please share the label of that item.
P

(a) O=C(NCc1ccccc1)N1C(=O)c2ccccc2S1(=O)=O
(b) O=C(NCc1cccc(Br)c1)N1C(=O)c2ccccc2S1(=O)=O
(c) COc1ccc(CNC(=O)N2C(=O)c3ccccc3S2(=O)=O)cc1
Order field: half-life | Direction: descending (largest first) Reply: labels, ordered per the request.
a, b, c

---

Assay: in vivo
Settings: ICR, mouse, ip, 30 mg/kg
reported-property: Cmax at 12 h (ng/mL)
The answer is to be given in ng/mL; state only the numeric part.

Which value of Cmax at 12 h has been reported for O=C1NS(=O)(=O)c2ccccc21 in the records?
29900

---

Species: Homo sapiens
Test: Selectivity ratio of IC50 for human FBPase to IC50 for human GAPDH
reported-property: Ratio IC50

compound	measured-value
CC(NC(=O)N1C(=O)c2ccccc2S1(=O)=O)c1ccccc1 (stereo unspecified)	1.3

(P) Cc1ccccc1CNC(=O)N1C(=O)c2ccccc2S1(=O)=O
(Q) O=C(NCc1ccccc1F)N1C(=O)c2ccccc2S1(=O)=O
Of P and Q , which carries the smaller reported Ratio IC50 figure? When you have decided, please share the label of that item.
P
